Molecular target: human cholecystokinin-2 receptor (CCK-2R) (Homo sapiens)
Construct: host or cells: 1321-N1 cells (plasma membranes prepared by Evotec AG Hamburg)
Sequence (P32239 whole entry): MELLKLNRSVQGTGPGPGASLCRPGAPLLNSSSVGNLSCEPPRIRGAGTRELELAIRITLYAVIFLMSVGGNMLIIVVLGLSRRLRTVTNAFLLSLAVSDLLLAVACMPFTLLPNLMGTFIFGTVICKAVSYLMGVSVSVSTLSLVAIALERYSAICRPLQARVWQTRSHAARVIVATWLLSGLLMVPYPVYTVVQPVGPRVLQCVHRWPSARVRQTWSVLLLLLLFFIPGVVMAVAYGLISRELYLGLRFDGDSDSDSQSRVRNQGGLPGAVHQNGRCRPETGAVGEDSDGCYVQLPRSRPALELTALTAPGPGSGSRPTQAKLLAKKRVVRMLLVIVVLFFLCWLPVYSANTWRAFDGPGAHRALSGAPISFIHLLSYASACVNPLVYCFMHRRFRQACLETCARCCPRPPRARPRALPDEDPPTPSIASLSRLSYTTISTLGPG
Assay: In vitro potency on CCK-2R, whole cell functional assay (IP1 accumulation, IP-One HTRF)
Format: cell-based
Starred links: 1 amine or outer side, 2 acyl side, 3 side chain; linkers in the order of their positions; H or OH if unused. Non-standard residues stand in square brackets, D forms with d. Residues, ends and D or L forms follow the SMILES beside them. *: point of attachment. sY = N[C@@H](Cc1ccc(OS(=O)(=O)O)cc1)C(=O)O; C18 diacid = O=C(O)CCCCCCCCCCCCCCCCC(=O)*; γGlu = O=C(O)[C@H](CCC(=O)[*:2])N[*:1]; NMeF = CN[C@@H](Cc1ccccc1)C(=O)O; dNMeD = CN[C@H](CC(=O)O)C(=O)O; AEEA = NCCOCCOCC(=O)O
measurement.label: EC50 (nM)
Answers are plain numbers, in nM.

Provide each entry's EC50 from the list below.
1. CC(C)C[C@H](NC(=O)[C@H](Cc1ccc(OS(=O)(=O)O)cc1)NC(=O)[C@H](CC(=O)O)NC(=O)COCCOCCNC(=O)COCCOCCNC(=O)CC[C@H](NC(=O)CCCCCCCCCCCCCCCCC(=O)O)C(=O)O)C(=O)NCC(=O)N[C@@H](Cc1c[nH]c2ccccc12)C(=O)N[C@H](C(=O)N(C)[C@H](CC(=O)O)C(=O)N(C)[C@@H](Cc1ccccc1)C(N)=O)C(C)C [Example 14] ({C18 diacid-γGlu-AEEA-AEEA}-D[sY]LGWV[dNMeD][NMeF]-NH2)
2. CC(C)C[C@H](NC(=O)[C@H](Cc1ccc(OS(=O)(=O)O)cc1)NC(=O)[C@H](CC(=O)O)NC(=O)COCCOCCNC(=O)COCCOCCNC(=O)CC[C@H](NC(=O)CCCCCCCCCCCCCCCCC(=O)O)C(=O)O)C(=O)NCC(=O)N[C@@H](Cc1c[nH]c2ccccc12)C(=O)N1CCC[C@H]1C(=O)N(C)[C@H](CC(=O)O)C(=O)N(C)[C@@H](Cc1ccccc1)C(N)=O [Example 15] ({C18 diacid-γGlu-AEEA-AEEA}-D[sY]LGWP[dNMeD][NMeF]-NH2)
3. CC(C)C[C@H](NC(=O)[C@H](Cc1ccc(OS(=O)(=O)O)cc1)NC(=O)[C@H](CC(=O)O)NC(=O)COCCOCCNC(=O)COCCOCCNC(=O)CC[C@H](NC(=O)CCCCCCCCCCCCCCCCC(=O)O)C(=O)O)C(=O)NCC(=O)N[C@@H](Cc1c[nH]c2ccccc12)C(=O)N[C@@H](C)C(=O)N(C)[C@H](CC(=O)O)C(=O)N(C)[C@@H](Cc1ccccc1)C(N)=O [Example 40] ({C18 diacid-γGlu-AEEA-AEEA}-D[sY]LGWA[dNMeD][NMeF]-NH2)
4. CC(C)C[C@H](NC(=O)[C@H](Cc1ccc(OS(=O)(=O)O)cc1)NC(=O)[C@H](CC(=O)O)NC(=O)COCCOCCNC(=O)COCCOCCNC(=O)CC[C@H](NC(=O)CCCCCCCCCCCCCCCCC(=O)O)C(=O)O)C(=O)NCC(=O)N[C@@H](Cc1c[nH]c2ccccc12)C(=O)N[C@@H](CC(C)C)C(=O)N(C)[C@H](CC(=O)O)C(=O)N(C)[C@@H](Cc1ccccc1)C(N)=O

Key:
730
150
880
79
